# subject.of.test: hERG (KCNH2) potassium channel (Homo sapiens, UniProt Q12809)
# Sequence (Q12809 whole entry): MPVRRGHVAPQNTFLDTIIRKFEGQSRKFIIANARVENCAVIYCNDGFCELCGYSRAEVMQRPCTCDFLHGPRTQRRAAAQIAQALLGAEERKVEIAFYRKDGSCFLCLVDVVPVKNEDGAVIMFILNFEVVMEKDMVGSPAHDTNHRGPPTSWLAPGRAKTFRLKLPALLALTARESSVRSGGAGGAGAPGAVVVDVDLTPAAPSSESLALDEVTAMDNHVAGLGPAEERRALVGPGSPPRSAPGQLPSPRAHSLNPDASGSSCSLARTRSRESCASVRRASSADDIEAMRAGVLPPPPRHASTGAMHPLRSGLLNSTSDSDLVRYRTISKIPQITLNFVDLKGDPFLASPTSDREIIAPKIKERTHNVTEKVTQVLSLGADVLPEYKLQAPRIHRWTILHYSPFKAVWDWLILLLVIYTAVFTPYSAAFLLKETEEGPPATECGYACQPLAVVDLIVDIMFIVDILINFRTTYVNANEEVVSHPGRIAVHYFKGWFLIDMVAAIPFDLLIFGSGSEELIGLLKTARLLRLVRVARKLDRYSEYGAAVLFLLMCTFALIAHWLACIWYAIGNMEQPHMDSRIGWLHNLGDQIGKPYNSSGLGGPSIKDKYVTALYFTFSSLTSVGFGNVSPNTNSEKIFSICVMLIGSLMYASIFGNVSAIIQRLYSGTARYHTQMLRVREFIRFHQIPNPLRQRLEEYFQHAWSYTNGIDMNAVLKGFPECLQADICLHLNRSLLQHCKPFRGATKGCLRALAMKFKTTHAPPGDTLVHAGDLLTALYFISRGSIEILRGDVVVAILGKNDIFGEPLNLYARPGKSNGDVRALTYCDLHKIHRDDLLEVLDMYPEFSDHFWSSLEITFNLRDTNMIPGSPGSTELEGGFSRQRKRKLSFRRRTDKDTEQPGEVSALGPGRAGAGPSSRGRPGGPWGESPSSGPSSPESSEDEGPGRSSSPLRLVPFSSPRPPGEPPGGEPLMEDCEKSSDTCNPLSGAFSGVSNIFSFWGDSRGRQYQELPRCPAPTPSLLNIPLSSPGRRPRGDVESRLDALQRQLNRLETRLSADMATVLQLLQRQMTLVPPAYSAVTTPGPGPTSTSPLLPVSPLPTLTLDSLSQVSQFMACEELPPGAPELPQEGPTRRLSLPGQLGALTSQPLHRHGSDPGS
# experiment.notes: Inhibition of human ERG potassium channel transfected in HEK293 cells at holding potential -80 mV at 10 uM and measured for 5 mins by whole cell patch clamp assay
# Assay type: toxicity, cell-based
# applied.conditions: HEK293 cells transfected with hERG
experimental.readout: inhibition at 5 min, 10 µM

                            compound_smiles  reported
0  Cn1cc(-c2ccc(CNc3cc(-c4cnc5cc(OCCCN6CCC(C)(F)CC6)ccn45)ncn3)cc2)cn1       -4%
1  Cc1nc(-c2ccc(CNc3cc(-c4cnc5cc(OCCN6CCC(=O)N(C)CC6)ccn45)ncn3)cc2)co1       -7%
2  Cn1cc(-c2ccc(CNc3cc(-c4cnc5cc(OCCN6CCn7nncc7C6)ccn45)ncn3)cc2)cn1       -8%
